- Experiment: ovarian cancer cell viability with rucaparib, profiling panel, oncology-focused library, rucaparib conditional (AID 1508598)
- Assay Setup: patient-derived ovarian cancer cells, CellTiter-Glo viability, 144 h; at 0.00122 µM; OCI-P5x cells; with rucaparib 20 µM; stronger effect = lower value; 100% = cells with rucaparib alone
Experimental Endpoint: viability (%)
Only the number, expressed in %, is required.

Please give measured viability of the following entry: "Cc1cc(O)c2c(c1)C(=O)c1cccc(O)c1C2=O"
92.4

Provide viability value for the following molecule: "CNC(=O)c1cc(Oc2ccc(NC(=O)Nc3ccc(Cl)c(C(F)(F)F)c3)cc2)ccn1"
129

Provide measured viability value, entry: "CN1CC[C@H](c2c(O)cc(O)c3c(=O)cc(-c4ccccc4Cl)oc23)[C@H](O)C1"
62

Please report the measured viability for "CC/C(=C(\c1ccccc1)c1ccc(OCCN(C)C)cc1)c1ccccc1"
92.3

Supply viability value. Item: "Cc1ccc(-n2nc(C(C)(C)C)cc2NC(=O)Nc2ccc(OCCN3CCOCC3)c3ccccc23)cc1"
97.9

Retrieve viability measured for Nc1cccc2c1CN(C1CCC(=O)NC1=O)C2=O (stereo not given) and print it.
130

Give reported viability value for "CCN(CC)CCNC(=O)c1c(C)[nH]c(/C=C2\C(=O)Nc3ccc(F)cc32)c1C"
98.6

Find the measured viability of "Cc1nc(Nc2ncc(C(=O)Nc3c(C)cccc3Cl)s2)cc(N2CCN(CCO)CC2)n1" and report it.
54.8

Look up and state reported viability for "Clc1ccc(Nc2nnc(Cc3ccncc3)c3ccccc23)cc1"
102

Indicate its recorded viability; the molecule in question is "O=C(CCc1ccc(O)cc1)c1c(O)cc(O)cc1O"
95.8

---

- Experiment: growth inhibition of RCMB18 medulloblastoma cells, cell-based, cisplatin and BGB IC40 combos (AID 1671462);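 also: cells exposed to compound for four days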
- Assay Setup: measured here: combination with cisplatin, at 0.5 µM, stronger effect = higher value
The entries below are paired with their reported inhibition.
Give the figure together with its unit, number first.

Sample records with inhibition:
Molecule	inhibition
N=C(N=C(N)N)N1CCOCC1	25.2%
N=c1ccn2c(n1)O[C@H]1[C@H](O)[C@@H](CO)O[C@H]12	11.8%
COC1C(OC(N)=O)C(O)C(Oc2ccc3c(O)c(NC(=O)c4ccc(O)c(CC=C(C)C)c4)c(=O)oc3c2C)OC1(C)C (stereo not drawn)	-16.8%
O=C(CCCCCCC(=O)Nc1ccccc1)NO	47.6%
CCn1nc(C(=O)O)c(=O)c2cc3c(cc21)OCO3	-7.95%

Answer with the recorded inhibition for the molecule listed here: "CN1CCN(c2c(F)cc3c(=O)c(C(=O)O)cn(CCF)c3c2F)CC1"
34.2%

Please list inhibition recorded for the molecule "Cc1ccc2nc(N)[nH]c(=O)c2c1Sc1ccncc1"
-45.9%

Tell us which inhibition value is on record for "O=c1cc[nH]c(=O)[nH]1"
-29.1%

For the molecule "O=c1c(O)c(-c2ccc(O)c(O)c2)oc2cc(O)ccc12" , give its measured inhibition value.
-7.15%

Kindly indicate its recorded inhibition. Item: "Nc1ccc2cc3ccc(N)cc3nc2c1"
-20.8%

Specify reported inhibition for the molecule shown: "C[C@@H](CN1CC(=O)NC(=O)C1)N1CC(=O)NC(=O)C1"
-37.1%

State, in one line, measured inhibition of "CCOC(=O)Nc1ccc(NCc2ccc(F)cc2)nc1N"
-15.1%

Identify inhibition associated with the molecule "O=c1[nH]c(=O)n([C@H]2C[C@H](O)[C@@H](CO)O2)cc1C(F)(F)F"
-28.5%
